Target: UniProt:P22303
Sequence (P22303 32-614, species assumed): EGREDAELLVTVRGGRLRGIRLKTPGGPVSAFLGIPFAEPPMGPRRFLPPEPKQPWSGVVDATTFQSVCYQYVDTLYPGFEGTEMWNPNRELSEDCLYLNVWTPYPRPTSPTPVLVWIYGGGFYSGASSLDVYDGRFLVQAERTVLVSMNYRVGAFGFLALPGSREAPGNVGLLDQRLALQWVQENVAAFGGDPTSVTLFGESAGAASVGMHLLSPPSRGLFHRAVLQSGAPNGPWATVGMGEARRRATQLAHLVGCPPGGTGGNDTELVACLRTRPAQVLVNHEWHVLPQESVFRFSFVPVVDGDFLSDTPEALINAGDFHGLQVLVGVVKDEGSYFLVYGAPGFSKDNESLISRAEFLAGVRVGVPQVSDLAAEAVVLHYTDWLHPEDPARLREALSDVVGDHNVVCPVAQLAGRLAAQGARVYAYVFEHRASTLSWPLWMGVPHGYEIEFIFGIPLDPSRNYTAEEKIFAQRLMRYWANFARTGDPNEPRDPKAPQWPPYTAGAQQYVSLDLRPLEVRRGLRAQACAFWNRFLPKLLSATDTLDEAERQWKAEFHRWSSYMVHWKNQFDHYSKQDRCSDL
T if IC50 is below 1 µM. F if not; exact matches included in F.

*Q* Input CCCCCc1cc2c(c(O)c1C(=O)NCCS)C=CC(C)(CCC=C(C)C)O2 (centres unmarked) ; condition: IC50 strictly below 1 µM. Does it hold?
*A* F

*Q* Input C=CCCCCCCCCCNC(=O)c1c(CCCCC)cc2c(c1O)C=CC(C)(CCC=C(C)C)O2 (centres unmarked) ; condition: IC50 strictly below 1 µM. Does it hold?
*A* T

*Q* Input CCCCCc1cc2c(c(O)c1C(=O)Nc1ccccc1)C=CC(C)(CCC=C(C)C)O2 (centres unmarked) ; condition: IC50 strictly below 1 µM. Does it hold?
*A* T

*Q* Input CCCCCc1cc2c(c(O)c1C(=O)NCCCc1ccccc1)C=CC(C)(CCC=C(C)C)O2 (centres unmarked) ; condition: IC50 strictly below 1 µM. Does it hold?
*A* F

Continuing:
*Q* Input CCCCCc1cc2c(c(O)c1C(=O)NC(C)CC)C=CC(C)(CCC=C(C)C)O2 (centres unmarked) ; condition: IC50 strictly below 1 µM. Does it hold?
*A* F

*Q* Input CCCCCc1cc2c(c(O)c1C(=O)Nc1ncc(C)s1)C=CC(C)(CCC=C(C)C)O2 (centres unmarked) ; condition: IC50 strictly below 1 µM. Does it hold?
*A* F

*Q* Input CCCCCc1cc2c(c(O)c1C(=O)N1CCN(CCO)CC1)C=CC(C)(CCC=C(C)C)O2 (centres unmarked) ; condition: IC50 strictly below 1 µM. Does it hold?
*A* T

*Q* Input CCCCCc1cc2c(c(O)c1C(=O)N1CCc3ccccc3C1)C=CC(C)(CCC=C(C)C)O2 (centres unmarked) ; condition: IC50 strictly below 1 µM. Does it hold?
*A* F

*Q* Input CCCCCCCCCCCCNC(=O)c1c(CCCCC)cc2c(c1O)C=CC(C)(CCC=C(C)C)O2 (centres unmarked) ; condition: IC50 strictly below 1 µM. Does it hold?
*A* F

*Q* Input CCCCCc1cc2c(c(O)c1C(=O)NC1CC1)C=CC(C)(CCC=C(C)C)O2 (centres unmarked) ; condition: IC50 strictly below 1 µM. Does it hold?
*A* F

*Q* Input CCCCCc1cc2c(c(O)c1C(=O)NC1CCCC1)C=CC(C)(CCC=C(C)C)O2 (centres unmarked) ; condition: IC50 strictly below 1 µM. Does it hold?
*A* T

*Q* Input CCCCCc1cc2c(c(O)c1C(=O)NCc1cc(Br)cs1)C=CC(C)(CCC=C(C)C)O2 (centres unmarked) ; condition: IC50 strictly below 1 µM. Does it hold?
*A* T
